Target or system ROCK2 (Homo sapiens (Human)): recorded IC50 listed per item.

>  <Compound>
COc1ccc(NC2CCN(c3ccc(-c4cn[nH]c4)c(Cl)c3)C2=O)cc1F (single isomer, unassigned) [Example 157]

>  <Measurement>
100 to 2200 nM

$$$$
>  <Compound>
COc1cc(NC2CCN(c3ccc(-c4cn[nH]c4)c(OC)n3)C2=O)ccc1F (single isomer, unassigned) [Example 208]

>  <Measurement>
< 10 nM

$$$$
>  <Compound>
CCc1cc(N2CCC(Nc3cccc(OC)c3)C2=O)ncc1-c1cn[nH]c1 (single isomer, unassigned) [Example 204]

>  <Measurement>
100 to 2200 nM

$$$$
>  <Compound>
COc1cc(NC2CCN(c3ccc(-c4cn[nH]c4)c(OC(F)F)c3)C2=O)ccc1F (single isomer, unassigned) [Example 107]

>  <Measurement>
10 to 100 nM

$$$$

Problem: Consider the compound COc1cc(NC2CCN(c3ccc(-c4cn[nH]c4)cc3F)C2=O)ccc1F (single isomer, unassigned) [Example 331] tested on ROCK2 (Homo sapiens (Human)); state its IC50.
Solution: 10 to 100 nM

Problem: Consider the compound COc1ccc(F)c(NC2CCN(c3ccc(-c4cn[nH]c4)c(OC)c3)C2=O)c1 (single isomer, unassigned) [Example 149] tested on ROCK2 (Homo sapiens (Human)); state its IC50.
Solution: 10 to 100 nM

---

# Test System: ROCK2 (Homo sapiens (Human), UniProt O75116);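 also: rho kinase enzyme reaction halted with EDTA, phospho- and non-phospho peptide separated for read-out, kinase activity inhibition derived across a dose-response series, DMSO under 2%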
# Sequence (O75116 whole entry, species assumed): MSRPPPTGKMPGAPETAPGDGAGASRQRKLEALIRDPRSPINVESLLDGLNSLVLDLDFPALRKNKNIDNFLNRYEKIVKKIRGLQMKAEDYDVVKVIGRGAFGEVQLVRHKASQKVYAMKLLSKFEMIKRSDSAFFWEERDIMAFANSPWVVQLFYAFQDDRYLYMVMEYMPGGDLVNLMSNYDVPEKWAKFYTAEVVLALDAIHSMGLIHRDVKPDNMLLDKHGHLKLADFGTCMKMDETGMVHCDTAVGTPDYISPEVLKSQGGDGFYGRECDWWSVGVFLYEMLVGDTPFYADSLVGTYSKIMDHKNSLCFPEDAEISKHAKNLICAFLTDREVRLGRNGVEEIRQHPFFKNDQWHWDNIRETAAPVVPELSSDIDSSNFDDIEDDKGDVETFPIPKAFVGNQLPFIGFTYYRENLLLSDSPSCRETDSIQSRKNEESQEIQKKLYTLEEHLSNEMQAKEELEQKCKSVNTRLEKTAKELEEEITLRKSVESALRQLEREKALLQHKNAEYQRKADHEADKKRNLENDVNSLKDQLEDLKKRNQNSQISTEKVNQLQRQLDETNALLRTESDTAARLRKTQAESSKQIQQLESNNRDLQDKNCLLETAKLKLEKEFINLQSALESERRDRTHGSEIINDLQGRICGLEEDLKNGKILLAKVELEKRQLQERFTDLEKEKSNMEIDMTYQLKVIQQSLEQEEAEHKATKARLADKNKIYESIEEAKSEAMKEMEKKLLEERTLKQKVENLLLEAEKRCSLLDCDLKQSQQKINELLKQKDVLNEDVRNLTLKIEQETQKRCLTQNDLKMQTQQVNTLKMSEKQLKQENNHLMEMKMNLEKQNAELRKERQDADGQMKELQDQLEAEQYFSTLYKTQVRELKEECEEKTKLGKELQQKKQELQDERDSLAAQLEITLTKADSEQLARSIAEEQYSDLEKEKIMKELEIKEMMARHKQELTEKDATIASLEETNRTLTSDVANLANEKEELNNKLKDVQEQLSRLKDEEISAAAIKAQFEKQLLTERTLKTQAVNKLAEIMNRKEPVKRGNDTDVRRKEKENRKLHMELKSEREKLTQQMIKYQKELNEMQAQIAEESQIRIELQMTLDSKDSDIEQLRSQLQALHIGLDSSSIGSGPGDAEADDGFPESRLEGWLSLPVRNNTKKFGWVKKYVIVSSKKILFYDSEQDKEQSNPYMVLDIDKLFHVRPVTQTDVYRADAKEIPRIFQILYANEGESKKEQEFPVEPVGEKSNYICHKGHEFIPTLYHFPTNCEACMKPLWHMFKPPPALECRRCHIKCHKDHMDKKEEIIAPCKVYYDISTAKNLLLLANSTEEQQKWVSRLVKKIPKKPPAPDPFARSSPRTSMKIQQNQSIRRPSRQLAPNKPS
# Experimental Details: biochemical
pIC50: −log10 of the molar value.
Measurement Kind: pIC50

Example cases with answers are listed next.
>  <Compound>
O=C1C(Nc2cccc(OCC3CC3)c2)CCN1c1ccc(-c2cn[nH]c2)c(F)c1 (single isomer, unassigned) [Example 362]

>  <pIC50>
7.00 to 8.00

$$$$
>  <Compound>
COc1cc(F)cc(NC2CCN(c3ccc(-c4cn[nH]c4)cc3)C2=O)c1 (single isomer, unassigned) [Example 26]

>  <pIC50>
> 8.00

$$$$

Now turn to the next compound.
Problem: Respond only with pIC50 recorded for COc1nc(N2CCC(N3CCN(S(C)(=O)=O)CC3)C2=O)ccc1-c1cn[nH]c1 (racemic)
Solution: 5.66 to 7.00
